Molecular target: Protein Tat (Human immunodeficiency virus type 1 group M subtype B (isolate HXB2)(HIV-1), UniProt P04608);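 further: tat binding to TAR RNA read out by fluorescence polarization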
Sequence (P04608 whole entry): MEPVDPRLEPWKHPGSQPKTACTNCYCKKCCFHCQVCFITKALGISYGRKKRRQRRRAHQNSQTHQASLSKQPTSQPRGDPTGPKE
Type: functional
Calls of active or inactive are those of the source.
Assignment: determine reported IC50 for the given compounds.

Please review the following examples before continuing.
compound | IC50
CCCCN1C(=O)NC(=O)C2(Cc3ccccc3N3CCOCC32)C1=O (centres undefined) | > 100 µM (active)
CCOC(=O)C1=C(O)/C(=C\c2ccc(CNC(=O)C(=O)Nc3ccccc3)o2)N=C1C | 5.9 µM (inconclusive)
Cc1nc2cc(NN=C3C(=O)CCCC3=O)ccc2s1 | > 50 µM (active)

Problem: Entry O=C(/C=C/c1ccc(O)c(O)c1)OC1C(O)CC(OC(=O)/C=C/c2ccc(O)c(O)c2)(C(=O)O)CC1O (centres undefined) needs its IC50 filled in; supply it.
Result: 85.2 µM (inconclusive)

---

target: Voltage-gated N-type calcium channel alpha-1B subunit/Amyloid beta A4 precursor protein-binding family A member 1 (Homo sapiens, UniProt Q00975+Q02410); format: protein assay
Sequence (Q00975 whole entry): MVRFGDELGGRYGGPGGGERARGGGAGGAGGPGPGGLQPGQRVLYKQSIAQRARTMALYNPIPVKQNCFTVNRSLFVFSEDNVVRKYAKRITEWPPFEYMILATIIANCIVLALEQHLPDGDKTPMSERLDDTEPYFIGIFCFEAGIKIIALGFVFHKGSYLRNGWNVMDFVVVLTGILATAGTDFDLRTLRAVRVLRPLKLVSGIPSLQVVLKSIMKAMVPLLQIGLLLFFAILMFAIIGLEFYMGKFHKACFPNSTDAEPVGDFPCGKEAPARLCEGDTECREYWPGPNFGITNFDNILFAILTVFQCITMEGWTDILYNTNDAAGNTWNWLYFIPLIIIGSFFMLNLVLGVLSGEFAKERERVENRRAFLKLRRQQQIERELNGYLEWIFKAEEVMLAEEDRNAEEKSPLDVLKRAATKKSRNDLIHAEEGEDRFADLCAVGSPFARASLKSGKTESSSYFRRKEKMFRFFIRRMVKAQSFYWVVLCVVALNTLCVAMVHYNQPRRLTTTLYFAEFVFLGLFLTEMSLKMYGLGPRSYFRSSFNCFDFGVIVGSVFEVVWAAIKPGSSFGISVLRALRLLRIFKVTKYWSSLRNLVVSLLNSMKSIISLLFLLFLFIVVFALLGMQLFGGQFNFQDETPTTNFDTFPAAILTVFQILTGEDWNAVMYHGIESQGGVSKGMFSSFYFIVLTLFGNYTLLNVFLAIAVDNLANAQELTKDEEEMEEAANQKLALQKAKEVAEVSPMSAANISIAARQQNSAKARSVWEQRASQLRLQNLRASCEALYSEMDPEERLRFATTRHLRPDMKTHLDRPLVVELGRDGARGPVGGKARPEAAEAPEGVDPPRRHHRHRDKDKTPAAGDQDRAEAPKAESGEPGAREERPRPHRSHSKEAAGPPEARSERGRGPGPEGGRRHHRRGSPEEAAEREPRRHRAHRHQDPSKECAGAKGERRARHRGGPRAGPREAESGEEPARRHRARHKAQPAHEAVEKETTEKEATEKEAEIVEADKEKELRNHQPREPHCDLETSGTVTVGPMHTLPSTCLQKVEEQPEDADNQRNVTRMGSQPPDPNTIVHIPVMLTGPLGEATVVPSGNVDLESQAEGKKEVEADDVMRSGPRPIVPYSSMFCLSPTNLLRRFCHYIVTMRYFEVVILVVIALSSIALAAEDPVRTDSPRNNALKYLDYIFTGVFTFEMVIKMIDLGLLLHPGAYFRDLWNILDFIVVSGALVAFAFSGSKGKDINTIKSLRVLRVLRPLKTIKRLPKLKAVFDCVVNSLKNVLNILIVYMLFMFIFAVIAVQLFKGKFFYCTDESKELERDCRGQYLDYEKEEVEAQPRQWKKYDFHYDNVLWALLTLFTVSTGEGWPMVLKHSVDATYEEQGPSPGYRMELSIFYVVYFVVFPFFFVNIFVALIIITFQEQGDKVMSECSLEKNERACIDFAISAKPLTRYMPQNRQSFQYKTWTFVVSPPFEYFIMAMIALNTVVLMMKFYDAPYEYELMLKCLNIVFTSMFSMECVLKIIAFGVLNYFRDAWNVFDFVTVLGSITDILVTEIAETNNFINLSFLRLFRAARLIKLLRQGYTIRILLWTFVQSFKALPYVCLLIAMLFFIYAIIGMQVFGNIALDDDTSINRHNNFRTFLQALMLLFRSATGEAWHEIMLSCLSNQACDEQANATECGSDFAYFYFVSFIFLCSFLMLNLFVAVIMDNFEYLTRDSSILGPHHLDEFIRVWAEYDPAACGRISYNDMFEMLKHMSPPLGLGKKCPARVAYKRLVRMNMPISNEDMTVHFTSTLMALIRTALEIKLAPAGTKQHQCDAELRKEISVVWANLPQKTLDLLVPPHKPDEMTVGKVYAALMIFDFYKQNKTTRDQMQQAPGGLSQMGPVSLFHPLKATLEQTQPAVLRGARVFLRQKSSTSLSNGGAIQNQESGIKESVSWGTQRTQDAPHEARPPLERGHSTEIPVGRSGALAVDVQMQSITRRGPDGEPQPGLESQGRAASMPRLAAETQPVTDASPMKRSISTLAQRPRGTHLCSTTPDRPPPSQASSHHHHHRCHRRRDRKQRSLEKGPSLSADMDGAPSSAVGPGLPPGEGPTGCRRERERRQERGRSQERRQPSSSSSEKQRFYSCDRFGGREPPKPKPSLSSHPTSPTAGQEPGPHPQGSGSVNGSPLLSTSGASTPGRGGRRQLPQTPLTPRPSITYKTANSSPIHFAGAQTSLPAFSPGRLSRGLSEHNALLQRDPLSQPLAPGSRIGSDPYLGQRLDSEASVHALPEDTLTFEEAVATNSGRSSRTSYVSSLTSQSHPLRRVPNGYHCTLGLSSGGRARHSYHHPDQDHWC
Sequence (Q02410 whole entry): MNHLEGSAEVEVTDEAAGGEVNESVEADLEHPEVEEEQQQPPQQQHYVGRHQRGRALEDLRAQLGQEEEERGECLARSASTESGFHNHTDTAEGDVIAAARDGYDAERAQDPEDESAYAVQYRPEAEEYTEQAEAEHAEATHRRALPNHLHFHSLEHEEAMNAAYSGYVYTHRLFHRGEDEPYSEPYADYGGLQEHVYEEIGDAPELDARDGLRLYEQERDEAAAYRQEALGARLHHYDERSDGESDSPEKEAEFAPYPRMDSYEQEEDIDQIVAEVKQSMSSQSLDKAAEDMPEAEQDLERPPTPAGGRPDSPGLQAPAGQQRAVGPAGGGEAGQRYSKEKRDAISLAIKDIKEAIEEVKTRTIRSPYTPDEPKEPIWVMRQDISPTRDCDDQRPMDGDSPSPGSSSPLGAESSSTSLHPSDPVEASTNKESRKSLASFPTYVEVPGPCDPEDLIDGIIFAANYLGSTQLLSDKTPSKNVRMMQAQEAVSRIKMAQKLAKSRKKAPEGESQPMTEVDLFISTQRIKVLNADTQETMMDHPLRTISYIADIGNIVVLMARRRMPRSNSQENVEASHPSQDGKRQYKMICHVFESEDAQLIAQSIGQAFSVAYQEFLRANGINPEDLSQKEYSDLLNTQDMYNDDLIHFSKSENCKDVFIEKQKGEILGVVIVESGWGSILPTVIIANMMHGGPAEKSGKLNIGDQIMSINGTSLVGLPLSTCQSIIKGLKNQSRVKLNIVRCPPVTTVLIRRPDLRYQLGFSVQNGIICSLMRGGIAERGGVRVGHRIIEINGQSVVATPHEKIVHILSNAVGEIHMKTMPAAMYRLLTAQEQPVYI
Calls of active or inactive are those of the source.
# output must be one of y = active, n = inactive

Previously resolved entries follow.
compound | discrete-label
N=C1/C(=C\c2ccc(-c3ccc(C(=O)O)cc3)o2)C(=O)N=C2SC=C(c3ccccc3)N12 | y
CCOc1cc(/C=N/NC(=O)c2ccc(-c3csc(Nc4ccc(C)cc4)n3)cc2)ccc1OCC(=O)O | y
C=C(C)C(=O)Nc1cccc(C2=NOC3(C2)C[C@@H](C(N)=O)N(C(=O)/C(C)=C/C)C3)c1 (stereo not given in full) | n
Cc1cccc(NC(=S)NC2CCCC2)n1 | n

Shift focus to the following entry.
Problem: Any idea what this test logged for `O=C1NC(=O)N(Cc2ccccc2)C(=O)/C1=C/c1cnn(-c2ccccc2)c1` ?
Result: n

---

target: FAD-linked sulfhydryl oxidase ALR (Homo sapiens); assay: inhibitors of human ALR sulfhydryl oxidase, dose response, biochemical, H2O2 detection, luminescence, cherry-pick (AID 493248)
Sequence (P55789 whole entry): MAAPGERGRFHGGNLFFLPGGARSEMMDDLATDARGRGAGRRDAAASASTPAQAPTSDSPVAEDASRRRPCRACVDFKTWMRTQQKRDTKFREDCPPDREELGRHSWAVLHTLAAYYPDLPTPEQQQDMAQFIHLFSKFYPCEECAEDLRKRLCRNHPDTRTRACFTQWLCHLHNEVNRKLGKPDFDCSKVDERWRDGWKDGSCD
Activity calls are given as the source filed them.
# output must be one of active, inactive

Previously resolved entries follow.
compound | discrete-label
Cc1noc(NS(=O)(=O)c2ccc(NC(=O)c3oc4ccc(Cl)cc4c3C)cc2)c1C | active
CC1=NN2C(=N)/C(=C\c3cc(C)n(Cc4ccccc4)c3C)C(=O)N=C2S1 | active
COc1ccc(N2CCN(C(=O)c3ccc(C)cc3Cl)CC2)cc1 | active
O=C(c1ccc(C[S+]([O-])Cc2ccc(Cl)cc2)o1)N1CCN(c2ccccc2)CC1 (configuration not stated) | inactive
COc1ccc(/C=N/NC(=O)CCc2c(C)n[nH]c2C)cc1O | active

Problem: Any idea what this test logged for `Cc1ccc(C=Cc2ccc(N(C)C)cc2)[n+](C)c1` ?
Result: active

Problem: Any idea what this test logged for `C/C(=N\Nc1ccc([N+](=O)[O-])cc1)c1cccc(N)c1` ?
Result: active

Problem: Any idea what this test logged for `CCc1ccc(N2C(=O)NC(=O)/C(=C\C=C\c3ccco3)C2=O)cc1` ?
Result: active

Problem: Any idea what this test logged for CC1CC(C)CN(S(=O)(=O)c2cccc3cccnc23)C1 (configuration not stated) ?
Result: active

Problem: Any idea what this test logged for N#CC1=C(N)Oc2cc(N)ccc2C1c1ccc(F)cc1 (configuration not stated) ?
Result: active

Problem: Any idea what this test logged for COc1cc(NC(=O)CN2c3ccccc3CC2C)cc(OC)c1OC (configuration not stated) ?
Result: active

Problem: Any idea what this test logged for `COc1cccc(/C=N/n2c(S)nnc2-c2cc(C)[nH]n2)c1O` ?
Result: active

---

Assignment: determine reported EC50 for the given compounds.
target: Heat shock factor protein 1 (Mus musculus, UniProt P38532); assay: inhibition of MG132-induced HSE-luciferase signal, confirmation, cell-based, NIH3T3, luminescence, dose retest (AID 2382); type: functional;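 further: NIH3T3 fibroblasts with HSF1-driven luciferase reporter stressed by proteasome inhibitor MG132; luminescence from HSF1-driven luciferase expression after 8 hours of MG132 stress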
Sequence (P38532 whole entry): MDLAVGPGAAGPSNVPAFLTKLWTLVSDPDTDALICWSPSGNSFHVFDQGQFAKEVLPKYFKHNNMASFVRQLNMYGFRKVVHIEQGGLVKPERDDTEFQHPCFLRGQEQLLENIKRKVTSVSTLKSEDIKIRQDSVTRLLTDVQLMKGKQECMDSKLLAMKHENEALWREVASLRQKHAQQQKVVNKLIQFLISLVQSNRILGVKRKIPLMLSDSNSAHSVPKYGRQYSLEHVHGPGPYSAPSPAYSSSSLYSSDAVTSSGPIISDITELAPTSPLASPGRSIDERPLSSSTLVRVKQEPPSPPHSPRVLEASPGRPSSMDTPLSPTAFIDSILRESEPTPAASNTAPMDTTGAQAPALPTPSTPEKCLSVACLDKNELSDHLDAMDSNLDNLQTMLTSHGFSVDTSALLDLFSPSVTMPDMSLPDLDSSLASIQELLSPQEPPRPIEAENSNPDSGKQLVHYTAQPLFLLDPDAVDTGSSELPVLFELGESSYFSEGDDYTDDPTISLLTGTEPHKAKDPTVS
The source made the active and inactive calls.

Please review the following examples before continuing.
compound | observed-result
O=C(OCc1cc(=O)n2cc(Br)ccc2n1)C1COc2ccccc2O1 (stereo unspecified) | > 195 µM (not active)
c1ccc(-c2ccc(-c3nc(-c4ccccn4)no3)cc2)cc1 | < 0.16 µM (active)
CCOc1nc(C)ccc1-c1noc(-c2cccnc2)n1 | > 195 µM (not active)
Nc1ccccc1C(=O)NNC1=C(C(=O)C(F)(F)F)CCC1 | 36.6 µM (active)
O=c1c(Cl)c(Cl)cnn1-c1ccccc1 | 5.45 µM (active)
COc1nn(-c2ccccc2)c(=O)c(Cl)c1Cl | 9.89 µM (active)
CCC(C)NC(=O)C1(C)CCC(=O)N1Cc1ccccc1OC (stereo unspecified) | > 195 µM (not active)
CC1Cc2ccccc2N1C(=O)COC(=O)c1ccc(S(=O)(=O)N(C)C)cc1 (stereo unspecified) | > 195 µM (not active)
Cc1c(C(=O)Nc2ccc3c(c2)OCCO3)cnn1C | 3.49 µM (active)
Clc1ccc(Nc2ccc(Cl)nn2)cc1 | > 195 µM (not active)

Record EC50 for all entries; do not skip any.
1. CC1=CCC2C(=O)N(c3ccc(C)c(Br)c3)C(=O)C2C1 (stereo unspecified)
2. O=C(CNC(=S)N(CCCN1CCOCC1)Cc1cccs1)NCc1ccccc1Cl
3. Cc1cc(C(C)(C)C)ccc1OCC(=O)N/N=C\c1c(C)n(C)n(-c2ccccc2)c1=O
4. Cc1cc(Br)c2[nH]cc(CCNC(=O)c3ccco3)c2c1
5. COc1ccccc1C1NC(=O)CCC1[N+](=O)[O-] (stereo unspecified)
6. O=C1CC(N2CC=C(c3ccc(F)cc3)CC2)C(=O)N1c1ccc(F)cc1 (stereo unspecified)

Result:
1: > 195 µM (not active); 2: > 195 µM (not active); 3: > 195 µM (not active); 4: > 195 µM (not active); 5: > 195 µM (not active); 6: > 195 µM (not active)

---

assay: microbe, parasite or virus in culture; format: functional; details: Mycobacterium tuberculosis
Active and inactive are the calls of the source.
Assignment: determine reported CC50 for the given molecules.

Please review the following examples before continuing.
molecule | CC50
CN1CCN(CC(=O)N2CCn3c4c(c5cc(C6CCCCC6)ccc53)CCCC42)CC1 (stereo not given) | 6.93 µM (active)
CC(C)(O)[C@H]1O[C@H]2CC[C@@]3(C)[C@@](O)(CC[C@H]4Cc5c([nH]c6ccccc56)[C@@]43C)C2=CC1=O | > 40 µM (active)
Nc1nc2ccccc2n1CCOc1ccccc1Cl | > 40 µM (active)
COc1ccc(COc2cc(-c3cccc(OC)c3)nc3ccc(NC(=O)c4ccc(OC)cc4)cc23)cc1 | 15.8 µM (active)

Problem: Entry `Cc1cc(Cl)ccc1NNC(=O)CCc1ccccc1` needs its CC50 filled in; supply it.
Result: > 40 µM (active)

---

experiment: cytotoxicity in HEK-293T cells, dose response, cytotoxicity control for TCR NF-kB inhibitor project, luminescence, T-cell screen hits (AID 489026); assay type: functional, cell-based;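 further: cells exposed to compound about 14 hours before the viability readout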
The source made the active and inactive calls.
# output must be one of active, inactive

Previously resolved entries follow.
line-notation | discrete-label
Cc1nc(Sc2nnnn2C)c2c3c(sc2n1)CCC3 | inactive
Cc1cc(NC(=O)COC(=O)c2ccc(S(=O)(=O)N3CCCc4ccccc43)cc2)no1 | inactive
Cn1nc(-c2ccccn2)nc2c(=O)n(C)c(=O)nc1-2 | active

Shift focus to the following entry.
Problem: Any idea what this test logged for `Cc1cc(C)cc(NS(=O)(=O)c2ccc(-c3cnc(C4CC4)o3)cc2)c1` ?
Result: inactive

---

target: Mannose-6-phosphate isomerase (Homo sapiens, UniProt P34949); test: human PMI inhibitors, high substrate, primary screen, biochemical, fluorescence intensity, high mannose 6-phosphate (AID 1220)
Sequence (P34949 whole entry): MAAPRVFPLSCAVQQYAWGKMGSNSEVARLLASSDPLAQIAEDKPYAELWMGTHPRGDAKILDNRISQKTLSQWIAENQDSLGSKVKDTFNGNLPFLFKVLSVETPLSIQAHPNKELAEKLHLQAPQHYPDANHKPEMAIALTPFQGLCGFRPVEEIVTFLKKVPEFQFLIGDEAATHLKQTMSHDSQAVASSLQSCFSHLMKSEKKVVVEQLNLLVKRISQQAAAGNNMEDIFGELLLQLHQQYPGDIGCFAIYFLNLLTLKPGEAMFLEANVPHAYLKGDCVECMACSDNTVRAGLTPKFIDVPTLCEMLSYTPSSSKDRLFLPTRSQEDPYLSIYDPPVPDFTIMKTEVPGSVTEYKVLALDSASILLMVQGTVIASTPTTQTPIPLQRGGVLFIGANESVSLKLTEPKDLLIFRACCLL
The source made the active and inactive calls.
Assignment: determine reported IC50 for the given molecules.

Please review the following examples before continuing.
molecule | IC50
COc1ccc(/N=C/C2=C(O)c3ccccc3CC2)cc1 | < 0.391 µM (not active)
Cc1c(CN2CCCCC2)c(O)n(CCO)c(=O)c1C#N | > 50 µM (not active)
O=C1C(=O)c2c(C(=O)c3ccccc3)coc2-c2ccccc21 | 9 µM (active)
COc1cc(/N=c2\ssnc2Cl)c(OC)cc1Cl | 6.24 µM (active)
COc1ccc(N2C(=O)CC(Sc3nc[nH]n3)C2=O)c(OC)c1 (configuration not stated) | > 50 µM (not active)
O=C(CCN1CCN(c2ccccc2)CC1)N/N=C/c1ccc(O)c(O)c1O | > 50 µM (not active)

Next item in the queue.
Problem: Entry CCOC(=O)C1=C(C)NC(=O)CC1c1cc2c(cc1[N+](=O)[O-])OCO2 (configuration not stated) needs its IC50 filled in; supply it.
Result: > 50 µM (not active)
